- Tgt: rat P2X4 wild type (r4-WT) (Rattus norvegicus, UniProt P51577)
- Sequence (P51577 1-388): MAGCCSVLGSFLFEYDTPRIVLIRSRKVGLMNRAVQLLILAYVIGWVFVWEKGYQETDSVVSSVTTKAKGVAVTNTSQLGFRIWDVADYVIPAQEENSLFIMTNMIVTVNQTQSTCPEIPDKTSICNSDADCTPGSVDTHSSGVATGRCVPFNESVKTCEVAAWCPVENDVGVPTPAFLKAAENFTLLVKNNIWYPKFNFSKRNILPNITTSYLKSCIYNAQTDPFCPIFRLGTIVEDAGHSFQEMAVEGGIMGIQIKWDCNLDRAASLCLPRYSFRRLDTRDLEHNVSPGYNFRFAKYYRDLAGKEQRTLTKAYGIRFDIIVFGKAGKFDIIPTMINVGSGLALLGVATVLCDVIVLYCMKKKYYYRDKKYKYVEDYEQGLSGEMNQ
- Assay summary: ATP-induced calcium influx (Fluo-4) in 1321N1 cells stably expressing rat P2X4 wild type
Metric name: IC50 (µM)
Form entry: value (µM) — number only.

Query :: I would be grateful if you could share the reported IC50 for CC(C)c1cc(Br)c(NC(=O)Nc2cccnc2)c(Br)c1 [BX430] .
Result :: 66.1

###

- Tgt: human P2X4 I312T (h4-I312T) (Homo sapiens, UniProt Q99571, I312T)
- Sequence (Q99571 1-388 I312T): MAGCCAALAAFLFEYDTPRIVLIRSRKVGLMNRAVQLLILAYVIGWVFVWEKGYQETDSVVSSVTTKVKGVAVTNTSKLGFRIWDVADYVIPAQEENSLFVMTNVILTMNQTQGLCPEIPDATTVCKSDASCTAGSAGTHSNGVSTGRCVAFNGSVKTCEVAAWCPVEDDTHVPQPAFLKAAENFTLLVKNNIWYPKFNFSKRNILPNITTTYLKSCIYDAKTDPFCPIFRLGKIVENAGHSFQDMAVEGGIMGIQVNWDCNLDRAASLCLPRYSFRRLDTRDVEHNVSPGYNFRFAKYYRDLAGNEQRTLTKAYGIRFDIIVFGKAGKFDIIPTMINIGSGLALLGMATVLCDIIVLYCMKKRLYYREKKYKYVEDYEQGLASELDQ
- Assay summary: ATP-induced calcium influx (Fluo-4) in 1321N1 cells stably expressing human P2X4 I312T
- Reported conditions: 1321N1 cells, human P2X4 I312T
Metric name: EC50 (µM)
Form entry: value (µM) — number only.

Query :: I would be grateful if you could share the reported EC50 for Nc1ncnc2c1ncn2[C@@H]1O[C@H](COP(=O)(O)OP(=O)(O)OP(=O)(O)O)[C@@H](O)[C@H]1O [ATP] .
Result :: 0.77

Values were extracted from paper PMC9947563.
